Test: Pharmacokinetic profile in male CD-1 mice
Type: in vivo
Settings: mouse, plasma, single oral dose 30 mg/kg
ATTRIBUTE MEASURED: Cmax (ng/mL)
Please respond with the number in ng/mL and leave the unit unwritten.

query: Provide only the value of recorded Cmax for C=CC(=O)N1CCc2nc(-c3nc(-c4ccc5c(c4)CCNC5)c4ccsc4c3-c3ccc(F)cc3OCCOC)sc2C1
result: 1080

---

System: pAKT in Tet-on KRAS G12D HeLa cells
Test: Cell-based pAKT HTRF assay in Tet-on KRAS G12D HeLa cells
Details: Tet-on KRAS G12D HeLa cells; read-out: pAKT inhibition IC50 in Tet-on KRAS G12D HeLa cells
Procedure: To determine the effectiveness of compounds in disrupting PIK3CA/KRAS signaling in cells, we implemented pAKT HTRF assay (Perkin-Elmer) in Tet-on KRAS G12D HeLa cells. On Day 1, cells were seeded into 96-well plates at 2×10^4 cells/well in complete growth media (DMEM, 10% Tet-Screened FBS) supplemented with 200 ng/mL doxycycline. On Day 2, cells were treated with compounds at 0.25% DMSO. […] Therefore, readings can be made between 4 and 24 h of incubation. […]
Please provide measured IC50 for the entries that follow.

query: Provide only the value of recorded IC50 for COCCOc1cc(F)ccc1-c1c(-c2cccc(C#N)c2)nc(-c2ccc3c(c2)CCNC3)c2ccsc12 [Compound 8]
result: > 10 µM

query: Provide only the value of recorded IC50 for COCCOc1cc(F)ccc1-c1c(-c2cccc(CNC(=O)C(C)C)c2)nc(-c2ccc3c(c2)CCNC3)c2ccsc12 [compound 10]
result: 1 to 10 µM

query: Provide only the value of recorded IC50 for C=CC(=O)N1CC(Cn2cc(-c3nc(-c4ccc5c(c4)CCNC5)c4ccsc4c3-c3ccc(F)cc3OCCOC)cn2)C1 [compound 48]
result: < 1 µM

query: Provide only the value of recorded IC50 for Fc1ccc(-c2c(-c3ccccc3)nc(-c3ccc4c(c3)CCNC4)c3ccsc23)c(OCc2ncccc2F)c1 [compound 7]
result: 1 to 10 µM

query: Provide only the value of recorded IC50 for C=CC(=O)NCc1cccc(-c2nc(-c3ccc4c(c3)CCNC4)c3c(c2-c2ccccc2OCCOC)CCC3)c1 [Compound 1]
result: 1 to 10 µM

query: Provide only the value of recorded IC50 for C=CC(=O)N1CC[C@H](n2cc(-c3nc(-c4ccc5c(c4)CCNC5)c4ccsc4c3-c3ccc(F)cc3OCCOC)cn2)C1 [compound 47]
result: < 1 µM

query: Provide only the value of recorded IC50 for COCCOc1cc(F)ccc1-c1c(-c2cccc(C(=O)N3CCCC3)c2)nc(-c2ccc3c(c2)CCNC3)c2ccsc12 [compound 15]
result: 1 to 10 µM

---

System: pAKT in Tet-on KRAS G12D HeLa cells
Test: Cell-based pAKT HTRF assay in Tet-on KRAS G12D HeLa cells
Settings: Tet-on KRAS G12D HeLa cells; read-out: pAKT inhibition IC50 in Tet-on KRAS G12D HeLa cells
ATTRIBUTE MEASURED: IC50

query: Provide only the value of recorded IC50 for COCCOc1cc(F)ccc1-c1c(-c2cccc(C(=O)NC(C)C)c2)nc(-c2ccc3c(c2)CCNC3)c2ccsc12
result: 1000 to 10000 nM

query: Provide only the value of recorded IC50 for C=CC(=O)Nc1cccc(-c2nc(-c3ccc4c(c3)CCC(N(C)C)C4)c3ccsc3c2-c2ccc(F)cc2OCCOC)c1 (centres unmarked)
result: 1000 to 10000 nM

query: Provide only the value of recorded IC50 for COCCOc1cc(F)ccc1-c1c(-c2cccc(NC(=O)C(C)C)c2)nc(-c2ccc3c(c2)CCNC3)c2ccsc12
result: 1000 to 10000 nM

query: Provide only the value of recorded IC50 for C=CC(=O)N1CCC(n2cc(-c3nc(-c4ccc5c(c4)CCNC5)c4ccsc4c3-c3ccc(F)cc3OCCOC)cn2)CC1
result: < 1000 nM

query: Provide only the value of recorded IC50 for C=CC(=O)N1CCC(n2cc(-c3nc(-c4ccc5c(c4)CCN(C)C5)c4ccsc4c3-c3ccc(F)cc3OCCOC)cn2)C1 (centres unmarked)
result: < 1000 nM

query: Provide only the value of recorded IC50 for CCC(=O)Nc1cccc(-c2nc(-c3ccc4c(c3)CCNC4)c3ccsc3c2-c2ccc(F)cc2OCCOC)c1
result: 1000 to 10000 nM

query: Provide only the value of recorded IC50 for COCCOc1cc(F)ccc1-c1c(-c2cccc(CN)c2)nc(-c2ccc3c(c2)CCNC3)c2ccsc12
result: 1000 to 10000 nM

query: Provide only the value of recorded IC50 for CCC(=O)NCc1cccc(-c2nc(-c3ccc4c(c3)CCNC4)c3ccsc3c2-c2ccc(F)cc2OCCOC)c1
result: 1000 to 10000 nM

query: Provide only the value of recorded IC50 for C=CC(=O)N1CCCC(n2cc(-c3nc(-c4ccc5c(c4)CCNC5)c4ccsc4c3-c3ccc(F)cc3OCCOC)cn2)C1 (centres unmarked)
result: < 1000 nM

query: Provide only the value of recorded IC50 for C=CC(=O)Nc1cccc(-c2nc(-c3ccc4c(c3)CNC(=O)C4)c3ccsc3c2-c2ccc(F)cc2OCCOC)c1
result: < 1000 nM

query: Provide only the value of recorded IC50 for COCCOc1cc(F)ccc1-c1c(-c2cccc(CNC(=O)C(C)C)c2)nc(-c2ccc3c(c2)CCNC3)c2ccsc12 [compound 14]
result: > 10000 nM

query: Provide only the value of recorded IC50 for COCCOc1cc(F)ccc1-c1c(-c2cccc(CNC(=O)CC(C)(C)C)c2)nc(-c2ccc3c(c2)CCNC3)c2ccsc12
result: > 10000 nM

query: Provide only the value of recorded IC50 for COCCOc1cc(F)ccc1-c1c(-c2cnn(CCC(=O)NC(C)(C)C)c2)nc(-c2ccc3c(c2)CCNC3)c2ccsc12
result: 1000 to 10000 nM

query: Provide only the value of recorded IC50 for COCCOc1cc(F)ccc1-c1c(-c2cnn(CC(C)(C)C)c2)nc(-c2ccc3c(c2)CCNC3)c2ccsc12
result: 1000 to 10000 nM
